system: IGF-1 receptor; assay: IGF-1 receptor content in LAPC-4 cells (immunoprecipitation, western blot); assay type: cell-based, human; settings: read-out: effects to inhibit DHT-induced IGF-1 receptor content; 3 separate experiments, mean+SEM, FIG. 5e
measure.name: pIC50
Field pIC50 (float): negative decimal logarithm of the concentration in molar.

Input line: Notebook: pull reported pIC50 for IGF-1 receptor, entry C[C@H](Cc1ccc(O)c(O)c1)[C@@H](C)Cc1ccc(O)c(O)c1 [NDGA, Meso-nordihydroguaiaretic acid]
Output line: 4.96
